Just for reference, patent US10117916B2 is where these values come from.

molecular target: HLA-A*02:01 (Homo sapiens, UniProt P04439, D140Y/D185E/D98H/E176V/E277Q/G131W/G231S/I119V/I121R/I166T/I218V/L300P/L318F/N151K/N90K/P208A/P217A/Q86G/Q94H/R138H/R169H/T345S); assay: MHC binding assay: UV-ligand exchange with β2m ELISA (peptide exchange yield); details: MHC class I binding score; binding to HLA-A*02:01 ranged by peptide exchange yield (UV-ligand exchange, β2m ELISA)
endpoint-label: Peptide Exchange

Answered cases to consult:
* 43 (FLLGPEALSFA; listed as Homo sapiens) [compound 43] | ″++++″ (≥75% = ++++)
* 371 (SLADDSVLERL; listed as Homo sapiens) [compound 371] | ″+++″ (≥50 = +++)
* 16 (ALPGGAAVAAV; listed as Homo sapiens) [compound 16] | ″++++″ (≥75% = ++++)
* 137 (NLIKTVIKL; listed as Homo sapiens) [compound 137] | ″+++″ (≥50 = +++)
* 228 (FLGGLSPGV; listed as Homo sapiens) [compound 228] | ″+++″ (≥50 = +++)

Please fill in: Peptide Exchange reported for 122 (LLIPVVPGV; listed as Homo sapiens) [compound 122] = ″+++″ (≥50 = +++)

Please fill in: Peptide Exchange reported for 358 (FLTDYLNDL; listed as Homo sapiens) [compound 358] = ″+++″ (≥50 = +++)

Please fill in: Peptide Exchange reported for 318 (NLQVTQPTV; listed as Homo sapiens) [compound 318] = ″+++″ (≥50 = +++)

Please fill in: Peptide Exchange reported for 23 (ALYLTEVFL; listed as Homo sapiens) [compound 23] = ″++++″ (≥75% = ++++)

###

target: HLA-A*02:01 (Homo sapiens, UniProt P04439, D140Y/D185E/D98H/E176V/E277Q/G131W/G231S/I119V/I121R/I166T/I218V/L300P/L318F/N151K/N90K/P208A/P217A/Q86G/Q94H/R138H/R169H/T345S); test: MHC binding assay: UV-ligand exchange with β2m ELISA (peptide exchange yield); conditions: MHC class I binding score; binding to HLA-A*02:01 ranged by peptide exchange yield (UV-ligand exchange, β2m ELISA)
endpoint-label: Peptide Exchange

Answered cases to consult:
* 123 (LLLAEAELLTL; listed as Homo sapiens) [compound 123] | ″++″ (≥20% = ++)
* 114 (LIPEGPPQV; listed as Homo sapiens) [compound 114] | ″+++″ (≥50 = +++)
* 120 (AIDAALTSV; listed as Homo sapiens) [compound 120] | ″+++″ (≥50 = +++)
* 332 (VMIQHVENL; listed as Homo sapiens) [compound 332] | ″+++″ (≥50 = +++)
* 234 (GLDDAEYAL; listed as Homo sapiens) [compound 234] | ″++″ (≥20% = ++)
* 132 (LVYEAIIMV; listed as Homo sapiens) [compound 132] | ″+++″ (≥50 = +++)
* 205 (GLSQANFTL; listed as Homo sapiens) [compound 205] | ″+++″ (≥50 = +++)

Moving on to another substance below.
Please fill in: Peptide Exchange reported for 181 (VLLSIPFVSV; listed as Homo sapiens) [compound 181] = ″+++″ (≥50 = +++)
